This collection of values is drawn from ChEMBL document CHEMBL1201861.

- Tested on: CAL-27;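 note: Viability-based readout, IC50 reflecting inhibition of CAL-27 cell growth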
- Assay remarks: cells
- Assay type: functional, cell-based
- Condition summary: Homo sapiens
- Description: SANGER: Inhibition of human CAL-27 cell growth in a cell viability assay.
Exercise: for every item that follows, state its recorded IC50.

compound `CC1=C(/C=C/C(C)=C/C=C/C(C)=C/C(=O)O)C(C)(C)CCC1` , IC50 observed: > 10 µM

GET /value?item= `NC(=O)c1ccc(N(C(N)=O)c2c(F)cccc2F)nc1-c1ccc(F)cc1F` &field=IC50 returns > 2 µM

The reported value for `CC1(C)CCC(c2ccc(Cl)cc2)=C(CN2CCN(c3ccc(C(=O)NS(=O)(=O)c4ccc(N[C@H](CCN5CCOCC5)CSc5ccccc5)c(S(=O)(=O)C(F)(F)F)c4)cc3)CC2)C1` in terms of IC50 is > 2 µM

In plain terms, `CN(C)CCOc1ccc(-c2nc(-c3ccncc3)c(-c3ccc4c(c3)CC/C4=N\O)[nH]2)cc1` has a documented IC50 of > 5 µM

Sure, the documented IC50 for `O=C(NCCCNc1nc(Nc2cccc(NC(=O)N3CCCC3)c2)ncc1I)c1cccs1` is > 5 µM

Value of IC50 reported for the compound `Cc1ccc(C(=O)Nc2ccc(CN3CCN(C)CC3)c(C(F)(F)F)c2)cc1C#Cc1cnc2cccnn12` is > 0.512 µM

---

Consider the following compounds; for each one, report its IC50.
- System: CAMA-1;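 note: growth inhibition of CAMA-1 cells, read out with a cell viability assay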
- Assay remarks: cells
- Assay type: functional, cell-based
- Condition summary: Homo sapiens
- Description: SANGER: Inhibition of human CAMA-1 cell growth in a cell viability assay.

O=C(NCCCNc1nc(Nc2cccc(NC(=O)N3CCCC3)c2)ncc1I)c1cccs1 [BX-795] has a reported IC50 of > 5 µM

Record NC(=O)Nc1cc(-c2cccc(F)c2)sc1C(=O)N[C@H]1CCCNC1 [AZD-7762] , field IC50: > 2 µM

What the record says about `O=S(=O)(O)c1ccc2cc(/N=N/c3cc(S(=O)(=O)O)c4cccnc4c3O)ccc2c1` : IC50 is > 16 µM

compound Cc1ccc(-n2nc(C(C)(C)C)cc2NC(=O)Nc2ccc(OCCN3CCOCC3)c3ccccc23)cc1 [DORAMAPIMOD] , IC50 observed: > 10 µM

# IC50 (compound: CS(=O)(=O)N1CCN(Cc2cc3nc(-c4cccc5[nH]ncc45)nc(N4CCOCC4)c3s2)CC1 [PICTILISIB] ) is > 4 µM

GET /value?item= CC1(C)CCC(c2ccc(Cl)cc2)=C(CN2CCN(c3ccc(C(=O)NS(=O)(=O)c4ccc(N[C@H](CCN5CCOCC5)CSc5ccccc5)c(S(=O)(=O)C(F)(F)F)c4)cc3)CC2)C1 [NAVITOCLAX] &field=IC50 returns > 2 µM

The value of IC50 measured for the compound NC1(c2ccc(-c3nc4ccn5c(=O)[nH]nc5c4cc3-c3ccccc3)cc2)CCC1 [MK-2206] turned out to be > 4 µM

---

- System: HOS
- Assay remarks: cells
- Assay type: functional, cell-based
- Condition summary: Homo sapiens
- Description: SANGER: Inhibition of human HOS cell growth in a cell viability assay.
Reported property: pIC50
// field semantics: pIC50 = negative decimal log of concentration (mol/L)

// compound NC(=O)Nc1cc(-c2cccc(F)c2)sc1C(=O)N[C@H]1CCCNC1 [AZD-7762] , assay HOS, pIC50 value: 6.06

---

- Tested on: COLO-320-HSR;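 note: growth inhibition of COLO-320-HSR cells, determined with a cell viability assay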
- Assay remarks: cells
- Assay type: functional, cell-based, Homo sapiens
- Condition summary: colo-320-hsr
- Description: SANGER: Inhibition of human COLO-320-HSR cell growth in a cell viability assay.
Where a SMILES comes first, the peptide text is derived from it. The star is where a group is joined. Cbz = O=C(OCc1ccccc1)*
Reported property: IC50

Form field IC50, entry CC(C)C[C@@H](C=O)NC(=O)[C@H](CC(C)C)NC(=O)[C@H](CC(C)C)NC(=O)OCc1ccccc1 [MG-132] (Cbz-Leu-Leu-Leu-aldehyde) : > 1 µM

---

- Test system: RPMI-8866
- Assay remarks: cells
- Type: functional, cell-based, Homo sapiens
- Condition summary: Homo sapiens, RPMI-8866
- Description: SANGER: Inhibition of human RPMI-8866 cell growth in a cell viability assay.
Reported property: IC50

The compound identified as `COc1ccc(-c2cc3nccn3c(Nc3ncccc3C(N)=O)n2)cc1OC` registered its IC50 at > 8 µM

Given item `Nc1ccccc1NC(=O)c1ccc(CNC(=O)OCc2cccnc2)cc1` , the value recorded as its IC50 is 1.6 µM

Entry `COC(=O)[C@H](CCSC)NC(=O)c1ccc(NC[C@@H](N)CS)cc1-c1ccccc1` , IC50 reported as > 1.02 µM

Just so you know, measured IC50 for `NC(=O)c1cccc(-c2cc(Nc3ccc(OC(F)(F)F)cc3)ncn2)c1` came out at > 1.28 µM

Summary for this compound, `CS(=O)(=O)N1CCN(Cc2cc3nc(-c4cccc5[nH]ncc45)nc(N4CCOCC4)c3s2)CC1` : IC50 is > 4 µM

Lab book: IC50 of `Cc1cc(N2CCOCC2)cc2[nH]c(-c3c(NC[C@@H](O)c4cccc(Cl)c4)cc[nH]c3=O)nc12` noted as > 5.12 µM

The compound listed as `CN(NC(=O)CC(=O)NN(C)C(=S)c1ccccc1)C(=S)c1ccccc1` shows IC50 equal to 0.03 µM

Noted for `Cc1ccc(-n2nc(C(C)(C)C)cc2NC(=O)Nc2ccc(OCCN3CCOCC3)c3ccccc23)cc1` : its IC50 reads > 10 µM

Measured IC50, `O=C(NCCCNc1nc(Nc2cccc(NC(=O)N3CCCC3)c2)ncc1I)c1cccs1` : > 5 µM

Value of measured IC50 for the entry `CCCCCCCCCCCC1=C(O)C(=O)C=C(O)C1=O` : 8.1 µM

IC50 for `O=S(=O)(O)c1ccc2cc(/N=N/c3cc(S(=O)(=O)O)c4cccnc4c3O)ccc2c1` is > 16 µM

---

Would you mind telling me the reported IC50 of each entry?
- Tested on: EW-1;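 note: growth inhibition of the human EW-1 cell line, read out by a cell viability assay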
- Assay remarks: cells
- Assay type: functional, cell-based, Homo sapiens
- Condition summary: Homo sapiens, EW-1
- Description: SANGER: Inhibition of human EW-1 cell growth in a cell viability assay.

Looking up NC(=O)c1ccc(N(C(N)=O)c2c(F)cccc2F)nc1-c1ccc(F)cc1F [VX-702] , I see its IC50 listed as > 2 µM

The reported IC50 of the compound `O=C1NC(=O)c2c1c(-c1ccccc1Cl)cc1[nH]c3ccc(O)cc3c21` was 0.338 µM

GET /value?item= CS(=O)(=O)N1CCN(Cc2cc3nc(-c4cccc5[nH]ncc45)nc(N4CCOCC4)c3s2)CC1 [PICTILISIB] &field=IC50 returns > 4 µM

compound `OC[C@H](Cc1ccccc1)Nc1nc(Oc2ccc3c(c2)CCC3)nc2c1ncn2Cc1ccc(-c2ccccc2)cc1` , IC50 observed: > 10.2 µM

Reported IC50 for NC(=O)Nc1cc(-c2cccc(F)c2)sc1C(=O)N[C@H]1CCCNC1 [AZD-7762] was 0.189 µM

// CC1=C(/C=C/C(C)=C/C=C/C(C)=C/C(=O)O)C(C)(C)CCC1 [TRETINOIN] : IC50 value = > 10 µM

According to the records, this compound COc1cc(N2CCC(N3CCN(C)CC3)CC2)ccc1Nc1ncc(Cl)c(Nc2ccccc2S(=O)(=O)C(C)C)n1 [TAE-684] displays IC50 of 0.103 µM

Noted for `COc1ccc(-c2cc3nccn3c(Nc3ncccc3C(N)=O)n2)cc1OC` : its IC50 reads 1.17 µM

The compound listed as NC1(c2ccc(-c3nc4ccn5c(=O)[nH]nc5c4cc3-c3ccccc3)cc2)CCC1 [MK-2206] shows IC50 equal to > 4 µM

---

- System: SF-268
- Assay remarks: cells
- Assay type: functional, cell-based, Homo sapiens
- Condition summary: Homo sapiens, SF-268
- Description: SANGER: Inhibition of human SF268 cell growth in a cell viability assay.
Reported property: pIC50
Scale for pIC50: -log10 of concentration given in mol/L; no unit attached.

Record for `COc1ccc(N(C(=O)Oc2c(C)cccc2C)c2ccnc(Nc3ccc(N4CCN(C)CC4)cc3)n2)c(OC)c1` under target or system SF-268: pIC50 reported as 5.60

Summary: CC(C)C[C@H](NC(=O)[C@H](Cc1ccccc1)NC(=O)c1cnccn1)B(O)O [BORTEZOMIB] , SF-268, pIC50 = 9.03

Measured on SF-268, NC(=O)Nc1cc(-c2cccc(F)c2)sc1C(=O)N[C@H]1CCCNC1 [AZD-7762] has a documented pIC50 of 6.06

---

- System: HDLM-2;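 note: cell viability assay measuring suppression of HDLM-2 proliferation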
- Assay remarks: cells
- Assay type: functional, cell-based, Homo sapiens
- Condition summary: Homo sapiens, HDLM-2
- Description: SANGER: Inhibition of human HDLM-2 cell growth in a cell viability assay.
Reported property: IC50

response.value for NC(=O)Nc1cc(-c2cccc(F)c2)sc1C(=O)N[C@H]1CCCNC1 [AZD-7762] (field: IC50) = 0.813 µM

// recorded IC50 for `NC(=O)c1cccc(-c2cc(Nc3ccc(OC(F)(F)F)cc3)ncn2)c1` : > 1.28 µM

Data point: `COc1ccc(N(C(=O)Oc2c(C)cccc2C)c2ccnc(Nc3ccc(N4CCN(C)CC4)cc3)n2)c(OC)c1` ; IC50 = > 5.12 µM

For C=CC(=O)N1CCCC(Nc2nc(Nc3ccc(N(C)C(=O)CC)cc3)nc3[nH]cnc23)C1 (stereo not given) the compound record lists IC50 as > 10.2 µM

`O=S(=O)(O)c1ccc2cc(/N=N/c3cc(S(=O)(=O)O)c4cccnc4c3O)ccc2c1` yielded IC50 of > 16 µM

Reported IC50 of NC(=O)c1ccc(N(C(N)=O)c2c(F)cccc2F)nc1-c1ccc(F)cc1F [VX-702] : > 2 µM

IC50 reading for CC1=C(/C=C/C(C)=C/C=C/C(C)=C/C(=O)O)C(C)(C)CCC1 [TRETINOIN] : > 10 µM

In plain terms, COc1cc(N2CCC(N3CCN(C)CC3)CC2)ccc1Nc1ncc(Cl)c(Nc2ccccc2S(=O)(=O)C(C)C)n1 [TAE-684] has a documented IC50 of > 2 µM

In plain terms, CS(=O)(=O)N1CCN(Cc2cc3nc(-c4cccc5[nH]ncc45)nc(N4CCOCC4)c3s2)CC1 [PICTILISIB] has a documented IC50 of 0.949 µM

# IC50 (compound: Cc1ccc(NC(=O)c2ccc(CN3CCN(C)CC3)cc2)cc1Nc1nccc(-c2cccnc2)n1 [IMATINIB] ) is > 2 µM
